# Tested on: MALME-3M melanoma
# test: NCI-60 one-dose screen, 48 h
# measurementSetup: 10 µM unless noted
The panel holds about 83,000 compounds, 20% with a hit somewhere; the sample as a whole holds those more often. The source made the active and inactive calls. Rule for the calls: active = growth percent below 10; inactive = the rest.
Possible outcomes: true (1) = active, false (0) = inactive

compound="CCOC(=O)c1cncn1C(C)c1ccccc1 (centres undefined)" labelvalue="false (0)"
compound=CC1(C)CN=C(NN=C(/C=C/c2ccc(C(F)(F)F)cc2)/C=C/c2ccc(C(F)(F)F)cc2)NC1 labelvalue="true (1)"
compound=C[C@]12CCc3sc(Nc4ccc(O)cc4)nc3C1=CC[C@@H]1[C@@H]2CC[C@]2(C)C(=O)CC[C@@H]12 labelvalue="false (0)"
compound="COC1C(O)CC(OC2CC(Oc3cc4cc5c(c(O)c4c(O)c3C)C(=O)[C@@H](OC3CC(OC4CC(OC6CC(C)(O)C(OC(C)=O)C(C)O6)C(O)C(C)O4)C(O)C(C)O3)[C@H]([C@H](OC)C(=O)[C@@H](O)[C@@H](C)O)C5)OC(C)C2OC(C)=O)OC1C (some centres undefined)" labelvalue="true (1)"
compound="C[N+]1(C)CCCC1c1cccnc1 (centres undefined)" labelvalue="false (0)"
compound=Nc1ccc(S(=O)(=O)F)cc1 labelvalue="false (0)"
compound=O=[N+]([O-])c1ccc(P(=O)(O)O)cc1 labelvalue="false (0)"
compound=CNC(=O)Oc1ccc(Cl)cc1SSc1cc(Cl)ccc1OC(=O)NC labelvalue="false (0)"
compound=COc1ccc(CN)cc1OC labelvalue="false (0)"
compound="COCC1OC2OC3C(COC)OC(OC4C(COC)OC(OC5C(COC)OC(OC6C(COC)OC(OC7C(COC)OC(OC8C(COC)OC(OC1C(O)C2O)C(O)C8O)C(O)C7O)C(O)C6O)C(O)C5O)C(O)C4O)C(O)C3O (centres undefined) (tested in a mixture with another compound)" labelvalue="false (0)"
compound=C[C@]12CCC(=O)C[C@@H]1CC[C@@H]1[C@@H]2CC[C@]2(C)[C@@H](OC(=O)N(CCCl)N=O)CC[C@@H]12 labelvalue="false (0)"
compound=Cc1cc(Br)c([N+](=O)[O-])cc1[N+](=O)[O-] labelvalue="false (0)"
compound=Cc1c(C)c(N)c(C)c(C)c1N labelvalue="false (0)"
compound=Cc1cc[c-]cc1.Fc1c[c-]c(-c2ccccn2)c(F)c1.N#CCC[PH+](CCC#N)c1ccccc1.[Pt+2] labelvalue="true (1)"
compound=N#CC(C#N)=Cc1cccc(F)c1 labelvalue="false (0)"
compound=O=[N+]([O-])c1c(Cl)cc(Cl)c([N+](=O)[O-])c1Cl labelvalue="false (0)"
compound=CCC(Br)(CC)C(=O)NC(N)=O labelvalue="false (0)"
compound="C[C@]12CCC3[C@@H](C[C@@H]4SC(Nc5ccccc5)=N[C@@]45CC(=O)CC[C@]35C)[C@@H]1CCC2=O (some centres undefined)" labelvalue="true (1)"
compound=O=S1(=O)OCCO1 labelvalue="false (0)"

====

# System: 786-0 renal
# test: NCI-60 one-dose screen, 48 h (100 = growth as untreated, 0 = no growth, -100 = all killed)
# measurementSetup: 10 µM unless noted
# Procedure: Cells are grown in 96 well plates and exposed to the test compound for 48 hours. Compounds are tested at a single concentration, which is 10^-5 M for most compounds. The reported endpoint is percent growth (GI% or GIPRCNT), where numbers from 0 - 100% represent growth inhibition, and numbers from -100% - 0 represent cell death. For example, a value of 40 represents 60% growth inhibition. A value of 0 means no net growth occurred over the course of the experiment. […]
This is part of a sample that, as a whole, favours compounds with a hit. Of some 83,000 tested, about 20% had one in any assay.
measuredQuantity: growth (%)

compound=Oc1cc(Cl)ccc1Oc1ccc(Cl)cc1Cl observedvalue=86.4
compound=C/C(=C\c1ccn(-c2ccc(N)cc2F)n1)[C@@H]1C[C@@H]2O[C@]2(C)CCC[C@H](C)[C@H](O)[C@@H](C)C(=O)C(C)(C)[C@@H](O)CC(=O)O1 observedvalue=18.1
compound=CC[C@H](C)[C@H](NC(=O)c1ncccn1)C(=O)N(C)[C@H](C[C@@H](OC(C)=O)c1nc(C(=O)N[C@@H](Cc2ccccc2)C[C@H](C)C(=O)OC)cs1)C(C)C observedvalue=38.5
compound=O=C(O)C(F)F observedvalue=106
compound=CCCn1cc2c3c(cccc31)[C@H]1C[C@@H](C)CN(C)[C@@H]1C2 observedvalue=81.7
compound=OCCN=Cc1c[nH]c2ccccc12 observedvalue=95.7
compound=CC[C@H](C)[C@H](NC(=O)c1cnccn1)C(=O)N(C)[C@H](C[C@@H](OC(C)=O)c1nc(C(=O)N[C@@H](Cc2ccccc2)C[C@H](C)C(=O)OC)cs1)C(C)C observedvalue=24.2
compound="CN1C2CCC1[C@@H](COC(=O)c1ccccc1)[C@@H](O)C2 (some centres undefined)" observedvalue=108
compound="NC1CN2CCC1CC2 (centres undefined)" observedvalue=89.4

All figures here come from PubChem BioAssay (NCI).
